- Target entity: T1, transforming growth factor-beta 3 (TGF-β3) (UniProt P10600 301-412)
- T1 construct: also called TGFb3; TGFB3
- T1 sequence (looked up): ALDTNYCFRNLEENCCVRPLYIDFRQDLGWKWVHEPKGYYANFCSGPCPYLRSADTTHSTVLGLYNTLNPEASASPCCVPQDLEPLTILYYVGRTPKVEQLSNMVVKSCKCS
- Method summary: ELISA, peptide on streptavidin plate, ligand 100 ng/ml
Ends that are not written are not given here.
For each of the binders below, state its ELISA OD450.
Report as a plain number; the unit OD450 is understood.

Note to self: ELISA OD450 recorded for RNLFPKDTLMNLHVYISEHEG (also: biotinylated, site not given here) [CLPTM1 peptide fragment of SEQ ID NO: 30] was 0.041

The binder identified as RRRFQKTKNLLTGETEADPEG (also: biotinylated, site not given here) [CLPTM1 peptide fragment of SEQ ID NO: 18] registered its ELISA OD450 at 0.004

For LMNLHVYISEHEHFTDFNATG (also: biotinylated, site not given here) [CLPTM1 peptide fragment of SEQ ID NO: 13] the binder record lists ELISA OD450 as 0.014

Reported ELISA OD450 of MIKRAEDYGPVEVISHWHPNG (also: biotinylated, site not given here) [CLPTM1 peptide fragment of SEQ ID NO: 19] : 0.004

Reported ELISA OD450 ( LWRWQLYAAQSTKSPWNFLGG (also: biotinylated, site not given here) [CLPTM1 peptide fragment of SEQ ID NO: 26] ) = 0.011

Given item LDQYVKFDAVSGDYYPIIYFG (also: biotinylated, site not given here, also called peptide 14) [CLPTM1 peptide fragment of SEQ ID NO: 21] , the value recorded as its ELISA OD450 is 0.065

Recorded ELISA OD450 (binder ITINIVDDHTPWVKGSVPPPG (also: biotinylated, site not given here) [CLPTM1 peptide fragment of SEQ ID NO: 20] ): 0.068

get_value(item= KALYRRLATVHMSRMINKYKG (also: biotinylated, site not given here, also called peptide 10) [CLPTM1 peptide fragment of SEQ ID NO: 17] , readout=ELISA OD450) returns 0.046

The recorded ELISA OD450 for entry RIFIIWAISSWFRRGPAPQDG (also: biotinylated, site not given here) [CLPTM1 peptide fragment of SEQ ID NO: 11] equals 0.003

// recorded ELISA OD450 for DTLMNLHVYISEHEHFTDFNATSALFWEQHDLVYGDWTSG (also: biotinylated, site not given here, also called peptide 29; GT5) [CLPTM1 peptide fragment of SEQ ID NO: 36] : 0.095

The value of ELISA OD450 measured for the binder SGDYYPIIYFNDYWNLQKDYYPINESLASLPLRVSFCPLS (also: biotinylated, site not given here, also called peptide 25; GT1) [CLPTM1 peptide fragment of SEQ ID NO: 32] turned out to be 0.3

Record summary for QAGPGGAPRVASRNLFPKDTG (also: biotinylated, site not given here) [CLPTM1 peptide fragment of SEQ ID NO: 12] : reported ELISA OD450 = 0.004
